# assayDetails: Cycloheximide Counterscreen for Small Molecule Inhibitors of Shiga Toxin; further: read at 38.3 µM for the half of the compounds with a filed dose
# conditionLabel: cell reporter, cycloheximide protein synthesis inhibition counterscreen
Out of some 300,000 compounds screened, about 37,000 (12%) were called active. No stated cut-off is given here; in the data, active means max response mostly above about 13% (no sharp cut-off); inactive means mostly below about 14%. For the sample, actives were picked, then their nearest neighbours and some compounds at random.
Output constraint: value belongs to Y = active, N = inactive

compound: CCOC(=O)N1CCC(NC(=O)c2ccc3nc(N4CCOCC4)sc3c2)CC1
assignedClass: N

Recorded call for Cc1nc2ccc(S(=O)(=O)NC(C(=O)N3CCCCCC3)C(C)C)cc2s1 (configuration not stated) ?
N

// query: O=C(NCCc1cccc(F)c1)C1CCCN(c2nc3ccccc3s2)C1 (configuration not stated)
N

Next compound up: Cc1nc2cc3c(cc2s1)OCO3
N

Continue with c1ccc2sc(N3CCNCC3)nc2c1
N

Next compound up: Fc1ccc2nc(N3CCCCC3)sc2c1
Y

Now consider Brc1ccc2nc(N3CCCC3)sc2c1 .
Y

----------
Assign max response to each entry below.
# assayDetails: Cycloheximide Counterscreen for Small Molecule Inhibitors of Shiga Toxin; further: read at 38.3 µM for the half of the compounds with a filed dose
# conditionLabel: cell reporter, cycloheximide protein synthesis inhibition counterscreen; active compounds read high
The whole screen tested about 300,000 compounds, of which about 37,000 (12%) were called active. What follows is part of a selection rich in actives, with near analogues and random picks from the rest.
Numbers only, in %.

Check out these entries, answers already filled in.
compound: S=C(Nc1ccc(Br)cc1)NC1CCN(Cc2ccccc2)CC1
measurementUnits: %
max response: -1.87
--
compound: COc1ccc(-n2cc(CNC3CCOCC3)c(-c3cccc(F)c3)n2)cc1
measurementUnits: %
max response: 1.41
--
compound: CCn1c(C(O)c2cc(OC)ccc2OC)nc2ccccc21 (stereo unspecified)
measurementUnits: %
max response: 5.8
--
compound: C/C(=N\NC(=S)NC1CCCCC1)c1ccc(C)o1
measurementUnits: %
max response: 26.6
--
compound: Cc1cc(Br)ccc1NC(=S)NC1CCCC1
measurementUnits: %
max response: 30.4
--
compound: NC(=O)COc1ccccc1C(=O)NC12CC3CC(CC(C3)C1)C2
measurementUnits: %
max response: 0.476

Batch request: max response per item, same order as input.
1. CC(C)(C)c1ccc(C(=O)NCCn2c(N)c(C#N)c3nc4ccccc4nc32)cc1
2. Fc1ccc(CNCc2ccc(Br)cc2)cc1
3. NNC(=O)COc1ccc(C2SCCS2)cc1
4. Cc1ccc(/C=N/NC(=S)Nc2cccc(S(=O)(=O)N(C)C)c2)o1
5. Cc1ccc(-c2c3c(=O)n(C)c(=O)n(C)c3cn2-c2ccccc2O)cc1
6. Cc1ccc(C(=O)N(CN2CCCC2=O)c2ccc(F)cc2)cc1
7. Cc1ccc(C)c(-n2cc(CN3CCN(C(=O)c4ncn[nH]4)CC3)c(-c3ccccc3)n2)c1

[-4.74, 2.17, 5.31, 11.3, 21.5, 11.4, -1.39]

Dear colleague, could you send me max response for each of the items below? Thanks.
1. Cn1c(=O)c([N+](=O)[O-])c(Oc2ccccc2)c2ccccc21
2. COc1cccc(NC(=O)CCNS(=O)(=O)c2ccc3c(c2)oc(=O)n3C)c1
3. Cc1cccc(C)c1NC(=O)CSc1nc2c([nH]1)c(=O)n(C)c(=O)n2C
4. Cc1ccc(-c2c3c(=O)n(C)c(=O)n(C)c3cn2-n2cnnc2)cc1
5. Cc1onc(-c2ccccc2Cl)c1C(=O)NCCn1ccc2ccccc21
6. Cc1ccc(NC(=O)CSCC(=O)NC2CCCCC2)cc1
7. CCC(O)C1CCN(Cc2cn(-c3ccc(OC)cc3)nc2-c2cccc(F)c2)CC1 (stereo unspecified)
8. Cc1ccc(/C=N/NC(=S)NC2CCCCC2)o1

[-2.35, 0.768, -6.42, 0.742, -2.37, 1.06, 10.6, 24.4]

----------
# assayDetails: Cycloheximide Counterscreen for Small Molecule Inhibitors of Shiga Toxin; further: read at 38.3 µM for the half of the compounds with a filed dose
# conditionLabel: cell reporter, cycloheximide protein synthesis inhibition counterscreen
The whole screen tested about 300,000 compounds, of which about 37,000 (12%) were called active. Rule as the data show it: active = max response mostly above about 13% (no sharp cut-off); inactive = mostly below about 14%. The entries come from a sample that favours actives as a whole.
Allowed answers: active, inactive

molecule: O=S(=O)(c1cccc(-c2cn3ccccc3n2)c1)N1CCCC1
assignedClass: inactive
//
molecule: COc1ccc(C(=O)Nc2ncc3c(n2)-c2ccccc2CC3)cc1
assignedClass: inactive
//
molecule: O=C1C2N=NN(CC(=O)N3N=C(c4cccc5ccccc45)CC3c3ccccc3)C2C(=O)N1c1ccccc1 (centres undefined)
assignedClass: inactive
//
molecule: Cc1ccn2c(c1)nc(=O)c1cc(S(=O)(=O)N3CCC(C)CC3)ccc12
assignedClass: inactive
//
molecule: COc1cc(C(C(=O)NC2CCCC2)N(C(=O)c2ccco2)c2ccccc2C(C)=O)cc(OC)c1OC (centres undefined)
assignedClass: inactive

For this molecule, state the assay outcome: O=C(CNC(=O)C(c1ccccc1)c1ccccc1)N/N=C\c1ccc2c(c1)OCO2
active

What about this molecule? CCc1cc2c(NC(Cc3ccccc3)C(=O)O)ncnc2s1 (centres undefined)
inactive

Now the same for COc1ccc(C(C(=O)NC2CCCCC2)N(C(=O)c2snc(C(N)=O)c2N)c2ccccc2OC)cc1 (centres undefined)
inactive

Then Brc1ccc(C2=NCCC(c3ccccc3)O2)cc1 (centres undefined) ?
inactive

Another molecule: CCOC(=O)COc1nc(C)cc(C(F)(F)F)c1C#N
inactive

Now consider CCc1ccc(/C=N/NC(=O)c2ccc(OC3CCCC3)cc2)s1 .
inactive

Would you mind doing Cc1cc(C)nc(SCC(=O)c2ccc(Cl)cc2)n1 as well?
inactive

Ok, now CNC(=S)N1N=C(c2ccccc2)CC1c1ccc(Br)cc1 (centres undefined)
inactive

Proceed to CCSc1nsc(NC(=O)Nc2cccc(C(C)=O)c2)n1
active

Try this molecule next: Cc1ccc(S(=O)(=O)Cc2cc(-c3ccc(Cl)cc3)no2)cc1
inactive

----------
# assayDetails: Cycloheximide Counterscreen for Small Molecule Inhibitors of Shiga Toxin; further: read at 38.3 µM for the half of the compounds with a filed dose
# conditionLabel: cell reporter, cycloheximide protein synthesis inhibition counterscreen
Among all 300,000 compounds or so, about 37,000 (12%) were called active. Rule as the data show it: active = max response mostly above about 13% (no sharp cut-off); inactive = mostly below about 14%. Shown is part of a subset that was picked to be rich in actives.
// one of label 1 (active), label 0 (inactive), no free text

Some solved entries appear below for comparison.
molecule: c1ccc2sc(SNC3CCCCC3)nc2c1
assignedClass: label 1
--
molecule: COc1cccc(-n2c(SCC(=O)c3c[nH]c4ccccc34)nc3ccccc3c2=O)c1
assignedClass: label 0

Could you check what this test reported for CCCC1=Nc2cc(C(=O)NCc3ccco3)ccc2Sc2ccccc21 ?
label 0

Do the same for COc1ccccc1NC1=NC(c2ccc(Cl)cc2)N=C(N)N1 (stereo unspecified) please
label 0

Same question for Cc1sc2ncnc(Sc3nc4ccccc4s3)c2c1C please.
label 0

Also check CCn1cc(CCC(=O)NCc2ccc(F)cc2)c2ccccc21
label 0

----------
# assayDetails: Cycloheximide Counterscreen for Small Molecule Inhibitors of Shiga Toxin; further: read at 38.3 µM for the half of the compounds with a filed dose
# conditionLabel: cell reporter, cycloheximide protein synthesis inhibition counterscreen; active compounds read high
Screen size: about 300,000 compounds; about 37,000 (12%) were called active. The entries come from a sample that favours actives as a whole.
measuredMetric: max response (%)
One number for each entry, in %.

// solved cases for max response follow
compound: CCN(Cc1ccncc1)C(=O)CCc1ccccc1
measurementUnits: %
reportedValue: -2.09
--
compound: CCCc1nnc(NC(=O)c2cc(OC)cc(OC)c2)s1
measurementUnits: %
reportedValue: 8.3
--
compound: COC(=O)c1c(NC(=O)c2cccs2)sc2c1CCCC2
measurementUnits: %
reportedValue: 9.75
--
compound: Cc1ccc(-c2csc(NC(=O)Cc3cccs3)n2)cc1C
measurementUnits: %
reportedValue: 12.4

Please give max response for each item listed below.
1. Cc1ccc(OCC(=O)Nc2ccc(NC(=O)c3cccs3)cc2)c(C)c1
2. COc1ccccc1NC(=O)C1CCCN1S(=O)(=O)c1ccc(Cl)cc1 (stereo unspecified)
3. COc1ccc(OC)c(NC(=O)c2ccc3c(c2)C(=O)N(c2ccc(OC(C)=O)cc2)C3=O)c1
4. Cc1ccc(NC(=O)Cn2c(=O)n(CCC(=O)NC3CCN(Cc4ccccc4)CC3)c(=O)c3ccccc32)cc1

1: -4.62; 2: 0.961; 3: 2.74; 4: -1.8

----------
Please go through the items and note down their max response.
# assayDetails: Cycloheximide Counterscreen for Small Molecule Inhibitors of Shiga Toxin; further: read at 38.3 µM for the half of the compounds with a filed dose
# conditionLabel: cell reporter, cycloheximide protein synthesis inhibition counterscreen; active compounds read high
Hit rate of the full screen: of about 300,000 compounds, about 37,000 (12%) were called active. Shown is part of a subset that was picked to be rich in actives.
Give bare numbers, in %.

smilesNotation: O=C(NCCSCc1ccccc1)c1ccc(Cl)c(S(=O)(=O)N2CCOCC2)c1
measuredMetric: max response
reportedValue: -2.82
//
smilesNotation: O=C(Nc1cccc(S(=O)(=O)N2CCCCC2)c1)c1ccc2c(c1)OCO2
measuredMetric: max response
reportedValue: -2.46
//
smilesNotation: O=C(c1ccc(Cl)c(S(=O)(=O)N2CCCCC2)c1)N1CCCCCC1
measuredMetric: max response
reportedValue: -2.78
//
smilesNotation: Cc1ccc(C(=O)Nc2ccccc2C(=O)NC2CCCCC2)cc1S(=O)(=O)N1CCOCC1
measuredMetric: max response
reportedValue: 12
//
smilesNotation: CCCNC(=S)N1CCC(NC(=O)c2ccc(OC)cc2)CC1
measuredMetric: max response
reportedValue: -1.83

Proceeding to the next molecule to report its max response.
Return reported max response; argument: COc1ccc(CC(=O)Nc2nc(-c3ccc(F)c(F)c3)cs2)cc1OC
-6.69
